Target Or System: EPHB1 (UniProt P54762)
Sequence (P54762 whole entry, looked up): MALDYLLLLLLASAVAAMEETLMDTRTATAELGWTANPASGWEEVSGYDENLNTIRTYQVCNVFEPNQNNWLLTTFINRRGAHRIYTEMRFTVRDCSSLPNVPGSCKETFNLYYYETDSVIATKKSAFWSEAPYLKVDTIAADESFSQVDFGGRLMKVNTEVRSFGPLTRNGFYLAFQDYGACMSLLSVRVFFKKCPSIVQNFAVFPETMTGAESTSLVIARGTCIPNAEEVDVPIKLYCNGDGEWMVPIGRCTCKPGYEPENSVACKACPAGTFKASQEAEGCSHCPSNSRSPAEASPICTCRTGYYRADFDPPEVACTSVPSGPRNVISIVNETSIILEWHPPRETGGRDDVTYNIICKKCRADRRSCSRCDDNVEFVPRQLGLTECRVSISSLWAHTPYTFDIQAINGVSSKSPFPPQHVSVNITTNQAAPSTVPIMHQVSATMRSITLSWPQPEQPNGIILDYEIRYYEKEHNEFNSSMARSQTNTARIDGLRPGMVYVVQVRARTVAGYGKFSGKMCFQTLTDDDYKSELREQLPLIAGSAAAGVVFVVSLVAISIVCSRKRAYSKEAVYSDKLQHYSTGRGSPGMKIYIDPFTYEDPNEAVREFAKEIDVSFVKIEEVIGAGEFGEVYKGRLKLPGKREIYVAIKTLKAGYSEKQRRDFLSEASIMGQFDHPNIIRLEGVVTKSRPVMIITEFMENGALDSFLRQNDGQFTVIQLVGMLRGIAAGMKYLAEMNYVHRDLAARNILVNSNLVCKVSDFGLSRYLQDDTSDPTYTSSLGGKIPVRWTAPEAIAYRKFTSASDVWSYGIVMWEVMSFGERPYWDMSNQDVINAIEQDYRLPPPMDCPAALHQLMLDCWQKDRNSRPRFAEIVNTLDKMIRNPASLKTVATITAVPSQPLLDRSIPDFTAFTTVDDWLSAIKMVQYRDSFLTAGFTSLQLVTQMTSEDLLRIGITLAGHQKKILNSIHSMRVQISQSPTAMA
Assay Name: phosphorylation enrichment, bacterial display (enrichment ratio); higher = better substrate or ligand; peptides without Tyr show the background;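 further: 11-residue human phosphosite peptides and single-mutation variants displayed on the E. coli surface, counted by deep sequencing, each peptide's frequency after selection divided by its frequency in the unselected input library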;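 further: frequency after pTyr selection over input frequency; kinase dosed for 20-30% of maximal phosphorylation in three min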
Readout Kind: phosphorylation enrichment

input_sequence="YQKDVYDIPPS [NEDD9_Y177]" readout_kind="phosphorylation enrichment" observed_measurement=0.788
input_sequence="IEDNEYTAREG [HCK_Y411]" readout_kind="phosphorylation enrichment" observed_measurement=0.637
input_sequence="RAILNYIASKF [GSTA3_Y74_YF]" readout_kind="phosphorylation enrichment" observed_measurement=0.534
input_sequence="KEAALYPHLLP [SQSTM1_Y383_P387L]" readout_kind="phosphorylation enrichment" observed_measurement=0.427
input_sequence="VIECSYTSADG [DHCR7_Y382]" readout_kind="phosphorylation enrichment" observed_measurement=0.524
input_sequence="SDFFAYSPVRE [H6PD_Y449_YF]" readout_kind="phosphorylation enrichment" observed_measurement=0.614
input_sequence="RLLVVYPWTRR [HBB_Y36_Q40R]" readout_kind="phosphorylation enrichment" observed_measurement=0.505
input_sequence="KKFVPYYDLFM [IPO5_Y530_E525K]" readout_kind="phosphorylation enrichment" observed_measurement=4.25
input_sequence="GDRPVYSEDEQ [CHST6_Y362_Y358D]" readout_kind="phosphorylation enrichment" observed_measurement=0.812
input_sequence="VCHELYNTIRD [PBRM1_Y54]" readout_kind="phosphorylation enrichment" observed_measurement=0.546
input_sequence="REVVNYVQKRS [RMI1_Y450_N455S]" readout_kind="phosphorylation enrichment" observed_measurement=0.459
input_sequence="KNAEKYAEEDW [HSPA9_Y568_R573W]" readout_kind="phosphorylation enrichment" observed_measurement=0.667
input_sequence="SSWKLYPRMLR [HAO1_Y50_R46S]" readout_kind="phosphorylation enrichment" observed_measurement=0.457
input_sequence="NREGVYTVFAP [TGFBI_Y537]" readout_kind="phosphorylation enrichment" observed_measurement=2.35

---

Each entry below lists one item and its recorded phosphorylation enrichment value.
Test system: c-Src
Assay Name: phosphorylation enrichment, bacterial display (enrichment ratio); higher = better substrate or ligand; peptides without Tyr show the background
Readout Kind: phosphorylation enrichment

input_sequence="DPLLTYWFPPK [LMNA_Y481_R482W]" target_or_system=c-Src observed_measurement=6.1
input_sequence="VKANTYEKFWL [GATM_Y100_P105L_YF]" target_or_system=c-Src observed_measurement=1.11
input_sequence="RASGIYFVPKG [APBB1IP_Y340_YF]" target_or_system=c-Src observed_measurement=4.75
input_sequence="ALVLQYLRVPL [F9_Y371]" target_or_system=c-Src observed_measurement=0.39
input_sequence="ADLTEYLSTHF [UQCRC1_Y219_YF]" target_or_system=c-Src observed_measurement=0.561
input_sequence="PFGQWYESHFA [RPS8_Y113_R110G_YF]" target_or_system=c-Src observed_measurement=4.21
input_sequence="FPPTHYIRRMP [SLC4A11_Y820_V824M_YF]" target_or_system=c-Src observed_measurement=0.543
input_sequence="TQTPPYVKKHP [LARP1B_Y457]" target_or_system=c-Src observed_measurement=0.488
input_sequence="KHGGNYVPAPE [OSCP1_Y237_K242E]" target_or_system=c-Src observed_measurement=0.405
input_sequence="IDLEKYKLLPE [DHFR_Y157]" target_or_system=c-Src observed_measurement=0.39
input_sequence="TRSYKCLLLSM [NF1_Y491_Y491C]" target_or_system=c-Src observed_measurement=0.401
input_sequence="HPYNSYTYPRL [PAK5_Y316_S312P]" target_or_system=c-Src observed_measurement=1.3
input_sequence="AIYWRYSKFFD [SH3PXD2B_Y45_R43W]" target_or_system=c-Src observed_measurement=0.97
input_sequence="NHFKICNLCAE [PTEN_Y68_Y68C_YF]" target_or_system=c-Src observed_measurement=0.486
input_sequence="RNVYYYSYLLK [PTEN_Y178_Y174N]" target_or_system=c-Src observed_measurement=7.3
input_sequence="LSCVIYVILRK [PMP22_Y153_G150C]" target_or_system=c-Src observed_measurement=1.06
input_sequence="RAILNYIASKF [GSTA3_Y74_YF]" target_or_system=c-Src observed_measurement=1
input_sequence="QGCSIYKDFFR [PLA2G2D_Y82_YF]" target_or_system=c-Src observed_measurement=6.61
input_sequence="TKAEKYVNKPK [PLCG1_Y991_A995P]" target_or_system=c-Src observed_measurement=0.467
input_sequence="TNQVIYLNPPI [DYNC1H1_Y970]" target_or_system=c-Src observed_measurement=0.743
input_sequence="RVDRDYVLKST [HTATIP2_Y111_A116T]" target_or_system=c-Src observed_measurement=0.388
input_sequence="PSDLLYIPDIQ [ITGA2B_Y845_L847P]" target_or_system=c-Src observed_measurement=0.808
input_sequence="CRIELYRVVES [IGFBP1_Y181]" target_or_system=c-Src observed_measurement=0.437
input_sequence="FGIAQYCCRMG [LRRK2_Y2023_YF]" target_or_system=c-Src observed_measurement=0.417
input_sequence="KVNKIYYPDFI [LIG3_Y767]" target_or_system=c-Src observed_measurement=0.724
input_sequence="CTSIHYNYMCN [TP53_Y234_T231S]" target_or_system=c-Src observed_measurement=0.5
input_sequence="RYMELYDLNRD [BBS2_Y648]" target_or_system=c-Src observed_measurement=4.49
input_sequence="TFRPPYFHRDC [HGD_Y333_N337D_YF]" target_or_system=c-Src observed_measurement=0.558
input_sequence="ALRHYYKLNII [ETV6_Y402]" target_or_system=c-Src observed_measurement=0.427
input_sequence="HMRLRYLAAEE [CEP120_Y884_Q879H]" target_or_system=c-Src observed_measurement=0.659
input_sequence="PEAALYGRFTF [FYN_Y440_I445F]" target_or_system=c-Src observed_measurement=7.87
input_sequence="PLRAFYLIARV [HLCS_Y635_D634Y_YF]" target_or_system=c-Src observed_measurement=2.27
input_sequence="CLSHCYFSQIR [MCM3AP_Y873_L870S]" target_or_system=c-Src observed_measurement=0.432
input_sequence="VSSPKYGSDDE [TMCC2_Y473]" target_or_system=c-Src observed_measurement=0.619
input_sequence="EAEPFYCSLRD [NPHS1_Y1139_R1140C_YF]" target_or_system=c-Src observed_measurement=2.86
input_sequence="GGYTCCCDGKK [PROS1_Y266_Y266C]" target_or_system=c-Src observed_measurement=0.426
input_sequence="EFNINYNNEPP [THG1L_Y228_L232P]" target_or_system=c-Src observed_measurement=0.529
input_sequence="QQTFTYDSGIH [JUP_Y22_YF]" target_or_system=c-Src observed_measurement=0.95
input_sequence="AFLLLCFNDTH [BMP15_Y235_Y235C]" target_or_system=c-Src observed_measurement=0.413
input_sequence="LDVGEYCVPRG [BEX1_Y43_A40V]" target_or_system=c-Src observed_measurement=0.539
input_sequence="KRGIDYILRHM [FRMD1_Y225]" target_or_system=c-Src observed_measurement=0.387
input_sequence="SECCKYKIDNP [OSMR_Y689]" target_or_system=c-Src observed_measurement=0.46
input_sequence="HSFQCYGRNEA [ENTPD3_Y262]" target_or_system=c-Src observed_measurement=0.417
input_sequence="FRQLQYCPSVE [CTNND2_Y508_YF]" target_or_system=c-Src observed_measurement=0.456
input_sequence="TWSRSYRSDRL [CRYBB1_Y131_S129R]" target_or_system=c-Src observed_measurement=0.545
input_sequence="CRWKRYQCSHD [GDPD5_Y30_R32C]" target_or_system=c-Src observed_measurement=0.448
input_sequence="QDKDLYPCPGT [RLF_Y671_R668K]" target_or_system=c-Src observed_measurement=0.483
input_sequence="MENFIYESMQF [CYP19A1_Y361_R365Q_YF]" target_or_system=c-Src observed_measurement=7.14
input_sequence="RRNSPYSQTMK [TET2_Y819]" target_or_system=c-Src observed_measurement=1.02
input_sequence="RQEEEYKRLSE [SFSWAP_Y133]" target_or_system=c-Src observed_measurement=1.2
input_sequence="EEALFYLTRVE [SET_Y119_H118Y_YF]" target_or_system=c-Src observed_measurement=0.557
input_sequence="ERNARYRTPKI [PTK2B_Y699]" target_or_system=c-Src observed_measurement=0.351
input_sequence="KENITYMKREQ [L1TD1_Y24]" target_or_system=c-Src observed_measurement=0.58
input_sequence="TYQYKYPEGSS [TGM4_Y440_E437Q]" target_or_system=c-Src observed_measurement=0.494
input_sequence="VVSLFYGTALF [OR10C1_Y251_M246V]" target_or_system=c-Src observed_measurement=1.97
input_sequence="RESYKYLPSSL [CXXC1_Y218_F219L]" target_or_system=c-Src observed_measurement=0.993
input_sequence="QMVGMYAFSFM [AVPR2_Y124_S126F_YF]" target_or_system=c-Src observed_measurement=1.28
